system: P388 lymphocytic leukemia; assay: In vivo P388 assay; set-up: species or system mice; conditions: at optimum dose, ip days 1,5,9; CDF1 male mice; control MST 11.0 days
readout-type: MST (median survival time) (days)
Just the number in days, nothing appended.

Please look up its MST (median survival time): Cc1ccc(C(=O)N[C@@H]2C(=O)N[C@H](C(C)C)C(=O)N3CCC[C@H]3C(=O)N(C)CC(=O)N(C)[C@@H](C(C)C)C(=O)O[C@@H]2C)c2c1Oc1c(c(C(=O)N[C@@H]3C(=O)N[C@H](C(C)C)C(=O)N4CCC[C@H]4C(=O)N(C)CC(=O)N(C)[C@@H](C(C)C)C(=O)O[C@@H]3C)c3nc(-c4ccc(Cl)cc4)c(=O)oc3c1C)N2
29

----------
tested on: P388 lymphocytic leukemia; assay: In vivo P388 assay; parameters: species or system mice; settings: at optimum dose, ip days 1,5,9; CDF1 male mice; control MST 11.0 days
Numbered stars: 1 amine (or outer) side, 2 acyl side, 3 side chain; on linkers, the order of the positions; unused ones are H or OH. Bridge positions count the residues as written; N and C are the ends. Square brackets hold non-standard residues; d marks the D form. Peptide text beside a SMILES is read from it. I, II: the chains in the order shown. Actinocin(9to1) = Cc1c2oc3c(C)ccc(C(=O)[*:1])c3nc-2c(C(=O)[*:2])c(N)c1=O; NMeV = CN[C@H](C(=O)O)C(C)C; Sar = CNCC(=O)O
readout-type: MST (median survival time) (days)
Just the number in days, nothing appended.

Please look up its MST (median survival time): CCCCCCc1nc2c(C(=O)N[C@@H]3C(=O)N[C@H](C(C)C)C(=O)N4CCC[C@H]4C(=O)N(C)CC(=O)N(C)[C@@H](C(C)C)C(=O)O[C@@H]3C)c3c(c(C)c2oc1=O)Oc1c(C)ccc(C(=O)N[C@@H]2C(=O)N[C@H](C(C)C)C(=O)N4CCC[C@H]4C(=O)N(C)CC(=O)N(C)[C@@H](C(C)C)C(=O)O[C@@H]2C)c1N3
25

Please look up its MST (median survival time): Cc1ccc(C(=O)N[C@@H]2C(=O)N[C@H](C(C)C)C(=O)N3CCC[C@H]3C(=O)N(C)CC(=O)N(C)[C@@H](C(C)C)C(=O)O[C@@H]2C)c2c1Oc1c(c(C(=O)N[C@@H]3C(=O)N[C@H](C(C)C)C(=O)N4CCC[C@H]4C(=O)N(C)CC(=O)N(C)[C@@H](C(C)C)C(=O)O[C@@H]3C)c3nc(-c4cccc(Cl)c4)c(=O)oc3c1C)N2
29

Please look up its MST (median survival time): Cc1ccc(C(=O)N[C@@H]2C(=O)N[C@H](C(C)C)C(=O)N3CCC[C@H]3C(=O)N(C)CC(=O)N(C)[C@@H](C(C)C)C(=O)O[C@@H]2C)c2c1Oc1c(c(C(=O)N[C@@H]3C(=O)N[C@H](C(C)C)C(=O)N4CCC[C@H]4C(=O)N(C)CC(=O)N(C)[C@@H](C(C)C)C(=O)O[C@@H]3C)c3nc(-c4ccccc4)c(=O)oc3c1C)N2
45

Please look up its MST (median survival time): Cc1ccc(C(=O)N[C@@H]2C(=O)N[C@H](C(C)C)C(=O)N3CCC[C@H]3C(=O)N(C)CC(=O)N(C)[C@@H](C(C)C)C(=O)O[C@@H]2C)c2c1Oc1c(c(C(=O)N[C@@H]3C(=O)N[C@H](C(C)C)C(=O)N4CCC[C@H]4C(=O)N(C)CC(=O)N(C)[C@@H](C(C)C)C(=O)O[C@@H]3C)c3nc(-c4c(F)c(F)c(F)c(F)c4F)c(=O)oc3c1C)N2
31.5

Please look up its MST (median survival time): Cc1nc2c(C(=O)N[C@@H]3C(=O)N[C@H](C(C)C)C(=O)N4CCC[C@H]4C(=O)N(C)CC(=O)N(C)[C@@H](C(C)C)C(=O)O[C@@H]3C)c3c(c(C)c2o1)Oc1c(C)ccc(C(=O)N[C@@H]2C(=O)N[C@H](C(C)C)C(=O)N4CCC[C@H]4C(=O)N(C)CC(=O)N(C)[C@@H](C(C)C)C(=O)O[C@@H]2C)c1N3
21

Please look up its MST (median survival time): Cc1c2oc3c(C)ccc(C(=O)N[C@@H]4C(=O)N[C@H](C(C)C)C(=O)N5CCC[C@H]5C(=O)N(C)CC(=O)N(C)[C@@H](C(C)C)C(=O)O[C@@H]4C)c3nc-2c(C(=O)N[C@@H]2C(=O)N[C@H](C(C)C)C(=O)N3CCC[C@H]3C(=O)N(C)CC(=O)N(C)[C@@H](C(C)C)C(=O)O[C@@H]2C)c(N)c1=O [Compound 1a, Actinomycin D, reference compound] (I: T[dV]P[Sar][NMeV] / II: T[dV]P[Sar][NMeV]; ester I:1-I:C, II:1-II:C; linker I:N-II:N via Actinocin(9to1))
26

----------
tested on: P388 lymphocytic leukemia; test: In vivo P388 assay; design: species or system mice; conditions: at optimum dose, ip days 1,5,9; CDF1 male mice; control MST 11.0 days
readout-type: MST (median survival time)
Number first, unit second.

Please look up its MST (median survival time): Cc1ccc(C(=O)N[C@@H]2C(=O)N[C@H](C(C)C)C(=O)N3CCC[C@H]3C(=O)N(C)CC(=O)N(C)[C@@H](C(C)C)C(=O)O[C@@H]2C)c2c1Oc1c(c(C(=O)N[C@@H]3C(=O)N[C@H](C(C)C)C(=O)N4CCC[C@H]4C(=O)N(C)CC(=O)N(C)[C@@H](C(C)C)C(=O)O[C@@H]3C)c3nc(-c4ccccc4)oc3c1C)N2 [Compound 3b]
23 days

Please look up its MST (median survival time): Cc1c2oc3c(C)c4oc(-c5ccccc5)nc4c(C(=O)N[C@@H]4C(=O)N[C@H](C(C)C)C(=O)N5CCC[C@H]5C(=O)N(C)CC(=O)N(C)[C@@H](C(C)C)C(=O)O[C@@H]4C)c3nc-2c(C(=O)N[C@@H]2C(=O)N[C@H](C(C)C)C(=O)N3CCC[C@H]3C(=O)N(C)CC(=O)N(C)[C@@H](C(C)C)C(=O)O[C@@H]2C)cc1=O [Compound 4b]
44 days

Please look up its MST (median survival time): Cc1ccc(C(=O)N[C@@H]2C(=O)N[C@H](C(C)C)C(=O)N3CCC[C@H]3C(=O)N(C)CC(=O)N(C)[C@@H](C(C)C)C(=O)O[C@@H]2C)c2c1Oc1c(c(C(=O)N[C@@H]3C(=O)N[C@H](C(C)C)C(=O)N4CCC[C@H]4C(=O)N(C)CC(=O)N(C)[C@@H](C(C)C)C(=O)O[C@@H]3C)c3nc(-c4ccc5ccccc5c4)c(=O)oc3c1C)N2 [Compound 2i]
26 days

Please look up its MST (median survival time): Cc1c2oc3c(C)c4oc(-c5c(F)c(F)c(F)c(F)c5F)nc4c(C(=O)N[C@@H]4C(=O)N[C@H](C(C)C)C(=O)N5CCC[C@H]5C(=O)N(C)CC(=O)N(C)[C@@H](C(C)C)C(=O)O[C@@H]4C)c3nc-2c(C(=O)N[C@@H]2C(=O)N[C@H](C(C)C)C(=O)N3CCC[C@H]3C(=O)N(C)CC(=O)N(C)[C@@H](C(C)C)C(=O)O[C@@H]2C)cc1=O [Compound 4c]
30 days

----------
Please go through the items and note down their MST (median survival time).
tested on: P388 lymphocytic leukemia; test: In vivo P388 assay; set-up: species or system mice; conditions: at optimum dose, ip days 1,5,9; CDF1 male mice; control MST 11.0 days
Just the number in days, nothing appended.

Please look up its MST (median survival time): Cc1ccc(C(=O)N[C@@H]2C(=O)N[C@H](C(C)C)C(=O)N3CCC[C@H]3C(=O)N(C)CC(=O)N(C)[C@@H](C(C)C)C(=O)O[C@@H]2C)c2c1Oc1c(c(C(=O)N[C@@H]3C(=O)N[C@H](C(C)C)C(=O)N4CCC[C@H]4C(=O)N(C)CC(=O)N(C)[C@@H](C(C)C)C(=O)O[C@@H]3C)c3nc(-c4ccccc4Cl)c(=O)oc3c1C)N2 [Compound 2c]
30

Please look up its MST (median survival time): Cc1ccc(C(=O)N[C@@H]2C(=O)N[C@H](C(C)C)C(=O)N3CCC[C@H]3C(=O)N(C)CC(=O)N(C)[C@@H](C(C)C)C(=O)O[C@@H]2C)c2c1Oc1c(c(C(=O)N[C@@H]3C(=O)N[C@H](C(C)C)C(=O)N4CCC[C@H]4C(=O)N(C)CC(=O)N(C)[C@@H](C(C)C)C(=O)O[C@@H]3C)c3nc(-c4c(F)c(F)c(F)c(F)c4F)oc3c1C)N2 [Compound 3c]
19

Please look up its MST (median survival time): Cc1ccc(C(=O)N[C@@H]2C(=O)N[C@H](C(C)C)C(=O)N3CCC[C@H]3C(=O)N(C)CC(=O)N(C)[C@@H](C(C)C)C(=O)O[C@@H]2C)c2c1Oc1c(c(C(=O)N[C@@H]3C(=O)N[C@H](C(C)C)C(=O)N4CCC[C@H]4C(=O)N(C)CC(=O)N(C)[C@@H](C(C)C)C(=O)O[C@@H]3C)c3nc(-c4ccc(Cl)cc4Cl)c(=O)oc3c1C)N2 [Compound 2f]
28
